The reported numbers originate from ChEMBL document CHEMBL1800029.

tested-on: Heat shock protein HSP 90-alpha (Homo sapiens, UniProt P07900)
method-description: Inhibition of Hsp90alpha in human H1299 cells assessed as HIF-1alpha degradation by luciferase reporter assay
Assay type: cell-based
attribute-measured: pEC50
pEC50 here: minus log base 10 of the concentration, concentration in moles per litre.

IN: Request the reported pEC50 associated with "O=c1[nH]c2cc(CNS(=O)(=O)c3cccc4ccccc34)ccc2n1-c1cc(Cl)c(O)cc1O"
OUT: 6.72

====

tested-on: UniProtKB P07900
method-description: Inhibition of Hsp90alpha in human SKBR3 cells assessed as ErbB2 degradation by Western blot analysis
Assay type: cell-based, SK-BR-3
attribute-measured: EC50

IN: Request the reported EC50 associated with "O=c1[nH]c2cc(CNS(=O)(=O)c3cccc4ccccc34)ccc2n1-c1cc(Cl)c(O)cc1O"
OUT: < 0.1 µM

====

Reported pIC50 values, Heat shock protein HSP 90-alpha (Homo sapiens, UniProt P07900).
pIC50 here: minus log base 10 of the concentration, concentration in moles per litre.

Consider the reported pIC50 for these molecules:
{"smiles-entry": "O=C(NCc1ccc2c(c1)[nH]c(=O)n2-c1cc(Cl)c(O)cc1O)c1ccccc1", "tested-on": "Heat shock protein HSP 90-alpha (Homo sapiens, UniProt P07900)", "result-value": 4.64}
{"smiles-entry": "O=C(NCc1ccc2c(c1)[nH]c(=O)n2-c1cc(Cl)c(O)cc1O)Nc1ccccc1", "tested-on": "Heat shock protein HSP 90-alpha (Homo sapiens, UniProt P07900)", "result-value": 4.81}
{"smiles-entry": "O=c1[nH]c2ccccc2n1-c1cc(O)ccc1O", "tested-on": "Heat shock protein HSP 90-alpha (Homo sapiens, UniProt P07900)", "result-value": 3.70}
{"smiles-entry": "O=c1[nH]c2ccccc2n1-c1ccc(O)cc1O", "tested-on": "Heat shock protein HSP 90-alpha (Homo sapiens, UniProt P07900)", "result-value": 4.07}

IN: Request the reported pIC50 associated with "O=c1[nH]c2cc(CNS(=O)(=O)c3ccc4ccccc4c3)ccc2n1-c1cc(Cl)c(O)cc1O"
OUT: 5.94

IN: Request the reported pIC50 associated with "CS(=O)(=O)NCc1ccc2c(c1)[nH]c(=O)n2-c1cc(Cl)c(O)cc1O"
OUT: 4.60

IN: Request the reported pIC50 associated with "O=c1[nH]c2cc(C(F)(F)F)ccc2n1-c1cc(C(F)(F)F)ccc1O"
OUT: 4.09

IN: Request the reported pIC50 associated with "O=c1[nH]c2ccccc2n1-c1cc(C(F)(F)F)ccc1O"
OUT: 3.90

IN: Request the reported pIC50 associated with "CCNC(=O)NCc1ccc2c(c1)[nH]c(=O)n2-c1cc(Cl)c(O)cc1O"
OUT: 4.85

IN: Request the reported pIC50 associated with "CC(=O)NCc1ccc2c(c1)[nH]c(=O)n2-c1cc(Cl)c(O)cc1O"
OUT: 4.61

====

tested-on: Heat shock protein HSP 90-alpha (Homo sapiens)
method-description: Inhibition of Hsp90alpha in human SKBR3 cells assessed as up-regulation of HSP70 protein by Western blot analysis
Assay type: cell-based, SK-BR-3
attribute-measured: pEC50
pEC50 here: minus log base 10 of the concentration, concentration in moles per litre.

IN: Request the reported pEC50 associated with "O=c1[nH]c2cc(CNS(=O)(=O)c3cccc4ccccc34)ccc2n1-c1cc(Cl)c(O)cc1O"
OUT: 7.22

====

Reported pIC50 values, UniProt:P07900.
pIC50 here: minus log base 10 of the concentration, concentration in moles per litre.

{"smiles-entry": "O=c1[nH]c2cc(CNS(=O)(=O)c3ccccc3)ccc2n1-c1cc(Cl)c(O)cc1O", "pIC50": 7.57}
{"smiles-entry": "CCNC(=O)NCc1ccc2c(c1)[nH]c(=O)n2-c1cc(Cl)c(O)cc1O", "pIC50": 7.48}
{"smiles-entry": "O=c1[nH]c2cc(CNS(=O)(=O)c3ccc4ccccc4c3)ccc2n1-c1cc(Cl)c(O)cc1O", "pIC50": 7.33}
{"smiles-entry": "O=c1[nH]c2ccccc2n1-c1cc(C(F)(F)F)ccc1O", "pIC50": 5.63}
{"smiles-entry": "O=C(NCc1ccc2c(c1)[nH]c(=O)n2-c1cc(Cl)c(O)cc1O)Nc1ccccc1", "pIC50": 7.22}

IN: # get_value(readout= pIC50, system= UniProt:P07900) for "O=c1[nH]c2ccccc2n1-c1cc(O)ccc1O"
OUT: 4.46

IN: # get_value(readout= pIC50, system= UniProt:P07900) for "O=C(NCc1ccc2c(c1)[nH]c(=O)n2-c1cc(Cl)c(O)cc1O)c1ccccc1"
OUT: 7.14

====

pIC50 by entry:
tested-on: UniProt P07900
pIC50 here: minus log base 10 of the concentration, concentration in moles per litre.

Consider the reported pIC50 for these compounds:
{"smiles-entry": "O=c1[nH]c2ccccc2n1-c1cc(Cl)c(O)cc1O", "pIC50": 4.82}
{"smiles-entry": "O=c1[nH]c2cc(CNS(=O)(=O)c3cccc4ccccc34)ccc2n1-c1cc(Cl)c(O)cc1O", "pIC50": 6.26}
{"smiles-entry": "O=c1[nH]c2cc(CNS(=O)(=O)c3ccccc3)ccc2n1-c1cc(Cl)c(O)cc1O", "pIC50": 5.47}

// switching to the query compound
IN: Request the reported pIC50 associated with "O=c1[nH]c2ccccc2n1-c1cc(O)c(Cl)cc1O"
OUT: 3.70

====

tested-on: Heat shock protein HSP 90-alpha (Homo sapiens, UniProt P07900)
attribute-measured: pIC50
pIC50 here: minus log base 10 of the concentration, concentration in moles per litre.

{"smiles-entry": "O=c1[nH]c2cc(C(F)(F)F)ccc2n1-c1cc(C(F)(F)F)ccc1O", "attribute-measured": "pIC50", "result-value": 5.48}
{"smiles-entry": "O=c1[nH]c2ccccc2n1-c1cc(Cl)c(O)cc1O", "attribute-measured": "pIC50", "result-value": 7.27}
{"smiles-entry": "CC(=O)NCc1ccc2c(c1)[nH]c(=O)n2-c1cc(Cl)c(O)cc1O", "attribute-measured": "pIC50", "result-value": 7.40}
{"smiles-entry": "CS(=O)(=O)NCc1ccc2c(c1)[nH]c(=O)n2-c1cc(Cl)c(O)cc1O", "attribute-measured": "pIC50", "result-value": 7.30}

IN: # get_value(readout= pIC50, system= Heat shock protein HSP 90-alpha (Homo sapiens, UniProt P07900)) for "O=c1[nH]c2ccccc2n1-c1cc(O)c(Cl)cc1O"
OUT: 5.60
